- TESTED_ON: α-amylase
- PROCEDURE_SUMMARY: α-amylase activity assay (colorimetric kit)
- EXPERIMENTAL_CONDITIONS: IC50 ± SD, n = 5; acarbose as standard drug
pIC50: −log10 of the molar value.
Reported pIC50 values are given for each entry in this list.
PROPERTY: pIC50

{"COMPOUND": "COc1cc(NNC(=S)Nc2cccc(F)c2)nc(N)n1 [Compound 4]", "ENDPOINT_RESULT": 4.95}
{"COMPOUND": "COc1cc(NNC(=S)Nc2cccc(C#N)c2)nc(N)n1 [Compound 17]", "ENDPOINT_RESULT": 4.40}
{"COMPOUND": "COc1cccc(NC(=S)NNc2cc(OC)nc(N)n2)c1 [Compound 14]", "ENDPOINT_RESULT": 4.48}
{"COMPOUND": "COc1cc(NNC(=S)Nc2cccc(Cl)c2)nc(N)n1 [Compound 6]", "ENDPOINT_RESULT": 4.82}
{"COMPOUND": "COc1cc(NNC(=S)Nc2cccc([N+](=O)[O-])c2)nc(N)n1 [Compound 11]", "ENDPOINT_RESULT": 4.67}
{"COMPOUND": "COc1cc(NNC(=S)Nc2cccc(Br)c2)nc(N)n1 [Compound 9]", "ENDPOINT_RESULT": 4.74}
{"COMPOUND": "COc1cc(NNC(=S)Nc2ccc(C)cc2)nc(N)n1 [Compound 16]", "ENDPOINT_RESULT": 4.47}
